Recorded values, source patent EP1652858A1.

Target: HLA-A2402 (human)
Assay: competition vs labelled reference peptide

{"Binder": "PAVPQTFQV (modifications not checked)", "Ki / nM": 991}
{"Binder": "TLWARMILM (modifications not checked)", "Ki / nM": 2640}
{"Binder": "LYGNEGLGW (modifications not checked)", "Ki / nM": 5}
{"Binder": "FWAKHMWNF (modifications not checked)", "Ki / nM": 2}
{"Binder": "GLTHIDAHF (modifications not checked)", "Ki / nM": 10}
{"Binder": "GLGWAGWLL (modifications not checked)", "Ki / nM": 68}
{"Binder": "YYRGLDVSVI (modifications not checked)", "Ki / nM": 437}
{"Binder": "PFYGKAIPI (modifications not checked)", "Ki / nM": 4}
{"Binder": "TYSTYGKF (modifications not checked)", "Ki / nM": 192}
{"Binder": "TWAQPGYPW (modifications not checked)", "Ki / nM": 8}
